- Test system: isolated mouse vas deferens
- Format: cell-based
- conditions.used: dose giving the response halfway between maximum response and minimum contraction; pulses at 0.1 Hz; mean of generally at least two cumulative dose response curves; read-out: Mean D50
Structures can show the parent of a compound that is named as a salt. Non-standard residues stand in square brackets, D forms with d. Residues, ends and D or L forms follow the SMILES beside them.
observable: IC50

Example entries begin here.
CSCC[C@H](NC(=O)[C@H](Cc1ccccc1)NC(=O)CNC(=O)[C@@H](C)NC(=O)[C@@H](N)Cc1ccc(O)cc1)C(=O)N[C@H](C(=O)O)[C@@H](C)O [Example 14, H.Tyr.D-Ala.Gly.Phe.Met.Thr.OH HCl] (H-Y[dA]GFMT-OH) :: 2.03 nM
CC(C)C[C@H](NC(=O)[C@H](Cc1ccccc1)NC(=O)CNC(=O)[C@@H](C)NC(=O)[C@@H](N)Cc1ccc(O)cc1)C(=O)O [Example 4, H.Tyr.D-Ala.Gly.Phe.Leu.OH HCl] :: 1.74 nM
COC(=O)[C@H](CCSC)NC(=O)[C@H](Cc1ccccc1)NC(=O)CNC(=O)[C@@H](C)NC(=O)[C@@H](N)Cc1ccc(O)cc1 :: 4.95 nM

Now for the compound whose IC50 we want.
Prompt line: What IC50 appears in the records for this compound with isolated mouse vas deferens? CSCC[C@H](NC(=O)[C@H](Cc1ccccc1)NC(=O)CNC(=O)[C@@H](C)NC(=O)[C@@H](N)Cc1ccc(O)cc1)C(=O)O [5(a), H.Tyr.D-Ala.Gly.Phe.Met.OH HCl]
Response line: 2.03 nM

All figures here come from patent US4254106A.
